# assayed_system: T1, HLA-A*02:01 (peptide-receptive MHC class I monomer after UV cleavage of the UV-sensitive ligand) (human)
# T1 construct: MHC monomers loaded by UV-ligand exchange and captured on streptavidin plates
# assay_summary: UV ligand-exchange ELISA; exchange yield grade (+ >=10%, ++ >=20%, +++ >=50%, ++++ >=75%)
Recorded peptide exchange yield values for a group of binders are listed next.
observation_type: peptide exchange yield

binder	observation_type	recorded_result
YLLDQPVLEQRL [YLLDQPVLEQRL (SEQ ID NO: 271)]	peptide exchange yield	≥ 75%
LQIGDFVSV [LQIGDFVSV (SEQ ID NO: 57)]	peptide exchange yield	≥ 75%
FLQDIPDGLFL [FLQDIPDGLFL (SEQ ID NO: 223)]	peptide exchange yield	20 to 50%
SLDVYELFL [SLDVYELFL (SEQ ID NO: 235)]	peptide exchange yield	50 to 75%
YQYPFVLGL [YQYPFVLGL (SEQ ID NO: 110)]	peptide exchange yield	≥ 75%
GLEDEMYEV [GLEDEMYEV (SEQ ID NO: 188)]	peptide exchange yield	20 to 50%
VLIDDTVLL [VLIDDTVLL (SEQ ID NO: 239)]	peptide exchange yield	50 to 75%
VVVDSDSLAFV [VVVDSDSLAFV (SEQ ID NO: 270)]	peptide exchange yield	≥ 75%
